assay: amyloid nucleation score (Sup35N fusion, yeast selection) (log enrichment); library NNK2; higher = more nucleation; inactive = no reads after selection;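 also: zero at mode of non-aggregating sequences after 7 days selection at 30°C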
Classification by amyloid nucleation score | ranges: low range (below -0.4), mid range (-0.4 to below 0.7), high range (0.7 or more)

> print(dat)
               substance  label.class
 1  FSCMISIKRFFRVAKNASGY   high range
 2  IHNKWNKMYDRPYLIKIVAS    mid range
 3  SLGHGKYMVCWGWYALGFYK    mid range
 4          CTCLWNDMRRGP   high range
 5           MFGGLGTDSLA    low range
 6      LSPLIAAHSTERVYWY    mid range
 7  SRWPLGNMCGKPVEMPEKWS   high range
 8               GSNIEGY    low range
 9     LYCDECISWYAHDWLNI    mid range
10  NDYEPRCMFGRIVCSNGPEM   high range
11  NVRDSYVNNCMTKGPRLNGV    low range
12          GCGFFDFSVSWL    low range
13  TAMFPHVRYSDTSYPAKRAV    low range
14  SISVAVRSCQVTVPGKCDCA   high range
15            ILVSFYRDSS    mid range
16   GPLFRFFRHRAFLQSTFSA    mid range
17               SDRGYSE   high range
18  FDGLHVYQCWTPVNIARVEE    mid range
19                LRFRGV    mid range
20         NLRSLECLCMRCK    mid range
21  GAMDLHQWASMMNMFPAMCV   high range
